molecular target: HIV-1 IN recombinant protein (Human immunodeficiency virus type 1 group M subtype B); assay: HIV-1 integrase 3′-processing gel-based assay
measure name: IC50

Record CCOC(=O)c1c(-c2ccccc2)nc(=O)n(Cc2ccc(C(=O)/C=C(\O)C(=O)O)cc2)c1C . Reported IC50: > 111 µM
